- Assay Overview: Chemical stability of the compound in PBS assessed as compound remaining at pH 7.4 after 180 mins
- Format: physicochemical
- Test Conditions: read-out: Stability
Value Kind: remaining at 3 h

Quote remaining at 3 h reported for C#CCN[C@H]1c2ccccc2C[C@@H]1[18F] [[18F]FLUORORASAGILINE] please.
> 97%

---

- Target Of Assay: UniProt:P21397
- Sequence (P21397 whole entry): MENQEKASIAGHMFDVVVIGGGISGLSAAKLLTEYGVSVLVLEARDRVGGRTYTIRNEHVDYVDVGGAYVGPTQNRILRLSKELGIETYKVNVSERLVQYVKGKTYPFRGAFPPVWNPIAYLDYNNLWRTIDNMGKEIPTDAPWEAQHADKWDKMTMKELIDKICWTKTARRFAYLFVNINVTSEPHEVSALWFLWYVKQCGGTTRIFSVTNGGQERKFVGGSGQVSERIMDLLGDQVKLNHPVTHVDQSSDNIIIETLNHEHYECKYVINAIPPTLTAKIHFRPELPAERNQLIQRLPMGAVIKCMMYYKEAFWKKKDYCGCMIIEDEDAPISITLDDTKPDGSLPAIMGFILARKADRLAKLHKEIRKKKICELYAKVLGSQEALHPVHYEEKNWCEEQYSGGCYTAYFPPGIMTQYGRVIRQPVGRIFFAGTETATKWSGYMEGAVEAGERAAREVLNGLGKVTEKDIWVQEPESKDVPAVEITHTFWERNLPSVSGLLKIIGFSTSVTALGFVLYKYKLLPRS
- Assay Overview: Inhibition of human recombinant MAO-A expressed in insect cells assessed as kynuramine hydrobromide oxidation after 20 mins by spectrophotometric analysis
Value Kind: IC50 (nM)
Quick reminder: number only, in nM, skip the unit.

Quote IC50 reported for C#CCN[C@H]1c2ccccc2C[C@@H]1[18F] [[18F]FLUORORASAGILINE] please.
2300
